The reported measurements were obtained from patent US6887873B2.

Test system: A549 cells
Test: Cytotoxic activity on human tumour line A549, neutral red, 96 hours
Type: cell-based
Conditions: Homo sapiens, A549, A549; read-out: Cytotox. A549 IC50
Lab note: cut-off is 2 µM. Strictly less in IC50 is Fulfilled. Exactly 2 µM or more is Not fulfilled.

Solved cases below.
{"columns": ["COMPOUND", "CATEGORY"],
 "data": [
  ["CC1=NCCN1c1nc(Nc2ccc3nc(C)cc(N(C)C)c3c2)nc(Nc2ccc3nc(C)cc(N(C)C)c3c2)n1 [Example 148]", "Fulfilled"],
  ["Cc1cc(N)c2cc(Nc3nc(Nc4ccc5nc(C)cc(N)c5c4)nc(NC4CCN(Cc5ccccc5)CC4)n3)ccc2n1 [Example 93]", "Not fulfilled"],
  ["Cc1cc(N(C)C)c2cc(Nc3nc(Nc4ccc5nc(C)cc(N(C)C)c5c4)nc(-c4ccccc4)n3)ccc2n1 [Example 134]", "Fulfilled"],
  ["CCCN(CCC)CCN1CCN(c2nc(Nc3ccc4nc(C)cc(N(C)C)c4c3)nc(Nc3ccc4nc(C)cc(N(C)C)c4c3)n2)CC1 [Example 137]", "Fulfilled"],
  ["Cc1cc(N)c2cc(Nc3nc(NCc4ccc([N+](C)(C)C)cc4)nc(Nc4ccc5nc(C)cc(N)c5c4)n3)ccc2n1 [Example 60]", "Not fulfilled"],
  ["Cc1cc(N(C)C)c2cc(Nc3nc(Nc4ccc5nc(C)cc(N(C)C)c5c4)nc(N(C)C4CCN(C)CC4)n3)ccc2n1 [Example 138]", "Fulfilled"],
  ["Cc1cc(N)c2cc(Nc3nc(Nc4ccc5nc(C)cc(N)c5c4)nc(Sc4ncccn4)n3)ccc2n1 [Example 126]", "Not fulfilled"],
  ["Cc1cc(N(C)C)c2cc(Nc3nc(Nc4ccc5nc(C)cc(N(C)C)c5c4)nc(N4CCN(CCOCCO)CC4)n3)ccc2n1 [Example 141]", "Fulfilled"],
  ["Cc1cc(N(C)C)c2cc(Nc3nc(Nc4ccc5nc(C)cc(N(C)C)c5c4)nc(N4CCN(c5ccncc5)CC4)n3)ccc2n1 [Example 144]", "Fulfilled"],
  ["Cc1cc(N(C)C)c2cc(Nc3nc(Nc4ccc5nc(C)cc(N(C)C)c5c4)nc(N4CCCN(C)CC4)n3)ccc2n1 [Example 135]", "Fulfilled"]
]}

Now look at this one.
Lab log: compare recorded IC50 with 2 µM; is it strictly lower for CC(=O)NCCNc1nc(Nc2ccc3nc(C)cc(N(C)C)c3c2)nc(Nc2ccc3nc(C)cc(N(C)C)c3c2)n1 [Example 150] ? Not fulfilled

----------
System: human telomerease (HL60 cell extract)
Experiment: Antitelomerease activity: extension of oligonucleotide TS followed by PCR amplification, with HL60 extract
Format: biochemical
Conditions: read-out: TRAP IC50
METRIC: IC50 (nM)
Give bare numbers, in nM.

{"columns": ["MOLECULAR STRING", "METRIC", "VALUE OBSERVED"],
 "data": [
  ["Cc1cc(N)c2cc(Nc3nc(Nc4ccncc4)nc(Nc4ccc5nc(C)cc(N)c5c4)n3)ccc2n1", "IC50", 360],
  ["Cc1cc(N(C)C)c2cc(Nc3nc(Nc4ccc5nc(C)cc(N(C)C)c5c4)nc(N4CCCN(CCCN5CCCC5)CC4)n3)ccc2n1", "IC50", 600],
  ["Cc1cc(N)c2cc(Nc3nc(Nc4ccc5nc(C)cc(N)c5c4)nc(NC4CCN(Cc5ccccc5)CC4)n3)ccc2n1", "IC50", 370]
]}

Next:
State, in one line, measured IC50 of `Cc1cc(N)c2cc(Nc3nc(Nc4ccc5nc(C)cc(N)c5c4)nc(N4CCN(C)CC4)n3)ccc2n1` 210
